FYI, the data here is from patent US11905294B2.

- tested-target: PI3K (p110δ/p85α) (Homo sapiens)
- Sequence (O00329 whole entry): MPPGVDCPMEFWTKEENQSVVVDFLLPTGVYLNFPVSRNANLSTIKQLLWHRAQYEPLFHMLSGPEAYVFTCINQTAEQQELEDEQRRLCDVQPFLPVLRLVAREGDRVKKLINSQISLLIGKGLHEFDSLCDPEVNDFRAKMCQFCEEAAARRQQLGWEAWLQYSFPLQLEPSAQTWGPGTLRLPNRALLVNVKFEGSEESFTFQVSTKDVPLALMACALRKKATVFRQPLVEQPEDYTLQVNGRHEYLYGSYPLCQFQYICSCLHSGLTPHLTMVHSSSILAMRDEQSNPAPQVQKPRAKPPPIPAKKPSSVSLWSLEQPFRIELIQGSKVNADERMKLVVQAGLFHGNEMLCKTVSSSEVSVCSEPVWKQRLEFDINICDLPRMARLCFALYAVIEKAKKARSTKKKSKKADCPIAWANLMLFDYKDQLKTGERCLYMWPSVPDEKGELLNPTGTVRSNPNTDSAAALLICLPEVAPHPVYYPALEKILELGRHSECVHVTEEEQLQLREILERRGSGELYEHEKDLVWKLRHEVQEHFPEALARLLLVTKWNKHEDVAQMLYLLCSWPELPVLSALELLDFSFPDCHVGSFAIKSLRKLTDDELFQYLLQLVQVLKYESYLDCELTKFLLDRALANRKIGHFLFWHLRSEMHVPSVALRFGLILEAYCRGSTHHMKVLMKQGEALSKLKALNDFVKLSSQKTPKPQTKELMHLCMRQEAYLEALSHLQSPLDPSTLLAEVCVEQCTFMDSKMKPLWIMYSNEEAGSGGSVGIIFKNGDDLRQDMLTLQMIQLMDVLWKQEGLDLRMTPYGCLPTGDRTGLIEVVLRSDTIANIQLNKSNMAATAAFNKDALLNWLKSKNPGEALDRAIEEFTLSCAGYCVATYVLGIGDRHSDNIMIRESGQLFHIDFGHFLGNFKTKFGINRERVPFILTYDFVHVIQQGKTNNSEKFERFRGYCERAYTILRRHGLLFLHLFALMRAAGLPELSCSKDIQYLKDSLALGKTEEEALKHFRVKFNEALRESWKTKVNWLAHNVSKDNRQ
- Sequence (P27986 whole entry partner): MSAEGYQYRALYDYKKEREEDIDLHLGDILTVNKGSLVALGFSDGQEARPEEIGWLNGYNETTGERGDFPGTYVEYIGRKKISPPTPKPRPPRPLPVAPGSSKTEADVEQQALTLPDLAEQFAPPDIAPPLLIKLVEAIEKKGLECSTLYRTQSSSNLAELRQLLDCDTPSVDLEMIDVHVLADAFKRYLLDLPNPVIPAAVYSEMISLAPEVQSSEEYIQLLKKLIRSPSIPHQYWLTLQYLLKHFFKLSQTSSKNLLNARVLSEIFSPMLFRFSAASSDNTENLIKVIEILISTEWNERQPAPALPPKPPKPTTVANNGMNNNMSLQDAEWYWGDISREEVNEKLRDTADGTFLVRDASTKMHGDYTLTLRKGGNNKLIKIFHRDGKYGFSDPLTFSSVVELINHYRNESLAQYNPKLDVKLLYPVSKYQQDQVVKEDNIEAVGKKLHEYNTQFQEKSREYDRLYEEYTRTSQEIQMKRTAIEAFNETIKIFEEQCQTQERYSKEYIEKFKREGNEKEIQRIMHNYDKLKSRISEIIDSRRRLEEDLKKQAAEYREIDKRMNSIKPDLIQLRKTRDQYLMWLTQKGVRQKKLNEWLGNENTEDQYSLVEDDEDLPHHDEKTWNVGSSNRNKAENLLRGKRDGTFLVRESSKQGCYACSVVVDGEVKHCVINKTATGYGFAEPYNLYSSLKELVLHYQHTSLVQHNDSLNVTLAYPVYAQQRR
- experiment-notes: PI3Kδ assay (ADP-Glo Kinase Assay)
- Type: biochemical
- test-settings: recombinant enzyme; IC50 (nM) or max inhibition (%) at 0.5 μM
experimental-readout: IC50 (nM)

Examples from the recorded data:
Cc1nc(C(C)c2cc(Cl)c(F)c(C(=O)N3CCC(O)CC3)c2OC(C)C)n2ccnc(N)c12 (stereo not drawn)
6
COCCNC(=O)c1c(F)c(Cl)cc(C(C)c2nc(C)c3c(N)nccn23)c1OC(C)C (stereo not drawn)
2.3
Cc1nc([C@@H](C)c2cc(Cl)c(F)c(C(=O)NCCN3CCN(C)CC3)c2OC(C)C)n2ccnc(N)c12
2.8
COC1CCN(C(=O)c2c(F)c(Cl)cc([C@H](C)c3nc(C)c4c(N)nccn34)c2OC(C)C)CC1
2
Cc1nc([C@@H](C)c2cc(Cl)c(F)c(C(=O)N[C@@H]3CCCC[C@@H]3O)c2OC(C)C)n2ccnc(N)c12
9.1

(I) Cc1nc([C@@H](C)c2cc(Cl)c(F)c(C(=O)N[C@@H](C)c3ccccc3)c2OC(C)C)n2ccnc(N)c12
(II) Cc1nc(C(C)c2cc(Cl)c(F)c(C(=O)N3CC[C@H](O)C3)c2OC(C)C)n2ccnc(N)c12 (stereo partly drawn)
(III) Cc1nc([C@@H](C)c2cc(Cl)c(F)c(C(=O)NCC3CCOCC3)c2OC(C)C)n2ccnc(N)c12
(IV) Cc1nc([C@@H](C)c2cc(Cl)c(F)c(C(=O)N[C@]3(C)CC[C@@H](O)CC3)c2OC(C)C)n2ccnc(N)c12
Request: // sort entries: IC50, high to low Reply: labels, ordered per the request.
Result: IV, II, I, III

(I) Cc1nc([C@@H](C)c2cc(Cl)c(F)c(C(=O)N3CC4(CCOC4)C3)c2OC(C)C)n2ccnc(N)c12
(II) Cc1nc([C@@H](C)c2cc(Cl)c(F)c(C(=O)N[C@@H]3CCCC[C@H]3O)c2OC(C)C)n2ccnc(N)c12
Request: Short answer wanted: higher IC50, I or II ? Answer by quoting the chosen item's label.
Result: II
(II: 3.9 nM, I: 1.7 nM)

(A) Cc1nc(C(C)c2cc(Cl)c(F)c(C(=O)N3CCOCC3)c2OC(C)C)n2ccnc(N)c12 (stereo not drawn) [Compound 4]
(B) Cc1nc(C(C)c2cc(Cl)c(F)c(C(=O)N3CCC(F)(F)CC3)c2OC(C)C)n2ccnc(N)c12 (single isomer, unassigned) [Compound 13A]
(C) Cc1nc(C(C)c2cc(Cl)c(F)c(C(=O)N3CCOCC3)c2OC(C)C)n2ccnc(N)c12 (single isomer, unassigned) [Compound 4A]
(D) Cc1nc([C@@H](C)c2cc(Cl)c(F)c(C(=O)NC3(CN(C)C)CC3)c2OC(C)C)n2ccnc(N)c12
Request: // sort entries: IC50, high to low Reply: labels, ordered per the request.
Result: D, B, A, C
(D: 11 nM, B: 3 nM, A: 1.9 nM, C: 1 nM)

(A) Cc1nc([C@@H](C)c2cc(Cl)c(F)c(C(=O)N[C@]3(C)C[C@H](O)C3)c2OC(C)C)n2ccnc(N)c12
(B) Cc1nc(C(C)c2cc(Cl)c(F)c(C(=O)Nc3ccccc3)c2OC(C)C)n2ccnc(N)c12 (stereo not drawn)
Request: Short answer wanted: higher IC50, A or B ? Answer by quoting the chosen item's label.
Result: B

(1) Cc1nc([C@@H](C)c2cc(Cl)c(F)c(C(=O)N[C@H]3CC[C@H](O)C3)c2OC(C)C)n2ccnc(N)c12
(2) Cc1nc([C@@H](C)c2cc(Cl)c(F)c(C(=O)N3C[C@H](C)O[C@@H](C)C3)c2OC(C)C)n2ccnc(N)c12
Request: Short answer wanted: higher IC50, 1 or 2 ? Answer by quoting the chosen item's label.
Result: 2

(1) Cc1nc([C@@H](C)c2cc(Cl)c(F)c(C(=O)NCC3CCCOC3)c2OC(C)C)n2ccnc(N)c12 (stereo partly drawn)
(2) Cc1nc([C@@H](C)c2cc(Cl)c(F)c(C(=O)NCC3(O)CC3)c2OC(C)C)n2ccnc(N)c12
Request: Short answer wanted: higher IC50, 1 or 2 ? Answer by quoting the chosen item's label.
Result: 2
(2: 2.2 nM, 1: 1.2 nM)

(1) Cc1nc([C@@H](C)c2cc(Cl)c(F)c(C(=O)N[C@H]3CCCOC3)c2OC(C)C)n2ccnc(N)c12
(2) Cc1nc([C@@H](C)c2cc(Cl)c(F)c(C(=O)N3CCC4(CC3)COC4)c2OC(C)C)n2ccnc(N)c12
Request: Short answer wanted: higher IC50, 1 or 2 ? Answer by quoting the chosen item's label.
Result: 2
